- Tested On: HLA-A2402 (Homo sapiens, UniProt P04439, D101N/D140Y/D185E/E176V/E190D/F33S/G103R/G107R/I119L/I121M/I306V/K335N/L105A/L180Q/L300P/N151K/N90K/Q86E/Q94H/R106L/R138H/R89G/T104I/T345S/V100E/W191G/Y123F)
- Assay Info: cell-based
- Type: binding
- Assay Setup: HLA-A2402 HMy2.CIR cells; competitor peptide 5μM; 24 hours; flow cytometry
Residues, ends and D or L forms follow the SMILES beside them.
Task for the reader: assign each of the following compounds its reported inhibition at 5 µM.
Answers are plain numbers, in %.

These solved cases illustrate the format of a correct answer.
>>> obs_value("CC(C)C[C@H](NC(=O)[C@H](CO)NC(=O)[C@H](Cc1ccccc1)NC(=O)[C@H](Cc1ccccc1)NC(=O)CNC(=O)[C@H](C)NC(=O)[C@H](CCC(N)=O)NC(=O)[C@@H](N)CC(C)C)C(=O)N[C@H](C(=O)N[C@@H](CCCCN)C(=O)O)[C@@H](C)O [Epitope P103] (H-LQAGFFSLTK-OH; N-terminus and C-terminus assumed)")
1.6
>>> obs_value("CC(C)C[C@H](NC(=O)[C@@H](NC(=O)[C@H](Cc1ccccc1)NC(=O)[C@@H](NC(=O)[C@@H](N)CCCCN)C(C)C)C(C)C)C(=O)NCC(=O)NCC(=O)N[C@@H](CS)C(=O)N[C@@H](CCCNC(=N)N)C(=O)O [Epitope P63]")
9.68
>>> obs_value("CSCC[C@H](NC(=O)[C@@H](N)CCSC)C(=O)N[C@@H](Cc1c[nH]c2ccccc12)C(=O)N[C@@H](Cc1ccc(O)cc1)C(=O)N[C@@H](Cc1c[nH]c2ccccc12)C(=O)NCC(=O)N1CCC[C@H]1C(=O)N[C@@H](CO)C(=O)N[C@@H](CC(C)C)C(=O)O [Epitope P72]")
55.7

Turning now to a further record.
Qu. Quick one: inhibition at 5 µM for CSCC[C@H](NC(=O)CNC(=O)[C@H](CCC(N)=O)NC(=O)[C@H](Cc1ccc(O)cc1)NC(=O)[C@H](CC(=O)O)NC(=O)[C@H](CC(C)C)NC(=O)[C@@H](N)CC(C)C)C(=O)N[C@@H](CC(C)C)C(=O)N1CCC[C@H]1C(=O)N[C@H](C(=O)O)C(C)C [Epitope P95] ?
Ans. 1.74
